# Target system: hAChE (Homo sapiens, UniProt P22303)
# Construct: purchased Sigma Aldrich
# Sequence (P22303 32-614): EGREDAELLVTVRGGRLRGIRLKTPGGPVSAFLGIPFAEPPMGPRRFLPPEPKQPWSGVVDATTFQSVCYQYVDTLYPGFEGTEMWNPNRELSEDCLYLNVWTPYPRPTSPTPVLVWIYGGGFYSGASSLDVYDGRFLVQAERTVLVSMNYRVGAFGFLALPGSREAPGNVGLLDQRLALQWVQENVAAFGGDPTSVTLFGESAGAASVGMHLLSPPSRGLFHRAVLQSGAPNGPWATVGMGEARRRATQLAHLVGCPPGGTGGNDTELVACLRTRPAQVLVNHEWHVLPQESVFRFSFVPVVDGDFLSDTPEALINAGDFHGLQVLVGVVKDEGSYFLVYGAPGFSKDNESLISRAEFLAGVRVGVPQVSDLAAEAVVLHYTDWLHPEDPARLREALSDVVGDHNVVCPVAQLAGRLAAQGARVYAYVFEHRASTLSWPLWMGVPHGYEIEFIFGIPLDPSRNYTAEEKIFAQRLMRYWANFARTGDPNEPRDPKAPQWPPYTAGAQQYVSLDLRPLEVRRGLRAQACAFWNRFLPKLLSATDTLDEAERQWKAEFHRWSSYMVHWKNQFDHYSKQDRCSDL
# Method notes: biochemical
Measure name: pIC50
FYI, pIC50 means -log10 of a concentration in mol per litre.

INSERT INTO measurements (compound, measure_name, recorded_measurement) VALUES
  ('CC1(C)CC[C@]2(C(=O)NCCCCCCNc3c4c(nc5cc(Cl)ccc35)CCCC4)CC[C@]3(C)C(=CCC4[C@@]5(C)CC[C@H](O)C(C)(C)C5CC[C@]43C)C2C1 (some centres unmarked)', 'pIC50', 7.84);

// moving on: another record for pIC50
pIC50 reading for CC1(C)CC[C@]2(C(=O)NCCCCCNc3c4c(nc5ccccc35)CCCC4)CC[C@]3(C)C(=CCC4[C@@]5(C)CC[C@H](O)C(C)(C)C5CC[C@]43C)C2C1 (some centres unmarked) : 6.11

Hello, the source for this data is paper PMC10108742, in case you need it.
